pIC50: −log10 of the molar value.
Literature survey of pIC50 (system: Fibroblast growth factor receptor 1 (Homo sapiens)).

compound	result
C=CC(=O)Nc1cc(N2CC[C@H](N(C)C)C2)ccc1Nc1ncc2cc(-c3c(Cl)c(OC)cc(OC)c3Cl)c3nccn3c2n1	> 7.30
COc1cc(NC(=O)N2CCCc3ccc(C=O)nc32)ncc1C#N	< 5.00
COCCN1CCC(Nc2ccc3c(c2)/C(=C(\c2ccc(F)c(F)c2)c2ncc[nH]2)C(=O)N3)CC1	6.30 to 7.30
CN(Cc1cc2c(nc1C=O)N(C(=O)Nc1cc(N(C)C)c(C#N)cn1)CCC2)C(=O)C1CCCO1 (stereo not shown)	< 5.00

Give pIC50 (Fibroblast growth factor receptor 1 (Homo sapiens)) of the following compound: `COCCOc1ccc(Nc2ncc(F)c(Nc3cccc(NS(=O)(=O)c4c(F)c(F)c(F)c(F)c4F)c3)n2)cc1`
8.00 to 10.00

Give pIC50 (Fibroblast growth factor receptor 1 (Homo sapiens)) of the following compound: `C=CC(=O)Nc1ccc(N2CCN(CC)CC2)c(C)c1Nc1ncc(/C=C(\F)c2c(Cl)c(OC)cc(OC)c2Cl)cn1`
6.21

Give pIC50 (Fibroblast growth factor receptor 1 (Homo sapiens)) of the following compound: `COc1ccc(Nc2ncnc(Nc3ccc4[nH]ccc4c3)n2)cc1OC`
5.02 to 5.18

---

Literature survey of IC50 (system: Fibroblast growth factor receptor 1 (Homo sapiens, UniProt P11362)).

Some solved cases for reference:
smiles-string	measured-target	value-kind	result
COCCN1CCC(Nc2ccc3c(c2)/C(=C(\c2ccc(F)c(Cl)c2)c2ncc[nH]2)C(=O)N3)CC1	Fibroblast growth factor receptor 1 (Homo sapiens, UniProt P11362)	IC50	0.05 to 0.5 µM
CCN1CCC(Nc2ccc3c(c2)/C(=C(\c2ccc(C)c(F)c2)c2ncc[nH]2)C(=O)N3)CC1	Fibroblast growth factor receptor 1 (Homo sapiens, UniProt P11362)	IC50	< 0.05 µM
Cn1cc(-c2ccc3c(c2)ncn3-c2cc(Nc3ncccn3)cc(-c3ccc(F)cc3F)c2)cn1	Fibroblast growth factor receptor 1 (Homo sapiens, UniProt P11362)	IC50	0.09 µM

Give IC50 (Fibroblast growth factor receptor 1 (Homo sapiens, UniProt P11362)) of the following compound: `COc1cc2nccc(Oc3ccc(N4CC(=O)NC4=S)c(Cl)c3)c2cc1C(N)=O`
0.2 to 1 µM

Give IC50 (Fibroblast growth factor receptor 1 (Homo sapiens, UniProt P11362)) of the following compound: `O=C(Nc1cc(-c2ccc(F)cc2F)cc(-n2cnc3cc(-n4cccn4)ccc32)c1)NC1CCCC1`
0.033 µM

Give IC50 (Fibroblast growth factor receptor 1 (Homo sapiens, UniProt P11362)) of the following compound: `N#Cc1cnc(NC(=O)N2CCCc3cc(CO)c(C=O)nc32)cc1O[C@H]1CCOC1`
> 10 µM

Give IC50 (Fibroblast growth factor receptor 1 (Homo sapiens, UniProt P11362)) of the following compound: `CCN1Cc2cc(-c3n[nH]c4cc(-c5c(F)c(OC)cc(OC)c5F)ncc34)cnc2C1=O`
< 0.1 µM

Give IC50 (Fibroblast growth factor receptor 1 (Homo sapiens, UniProt P11362)) of the following compound: `C=CC(=O)NCc1ncc2c(n1)C1(CC1)C(=O)N(c1c(F)c(OC)cc(OC)c1F)C2`
> 0.2 µM

Give IC50 (Fibroblast growth factor receptor 1 (Homo sapiens, UniProt P11362)) of the following compound: `CCN(CC)CCNC(=O)c1c(C)[nH]c(/C=C2\C(=O)Nc3cccc(-c4cccc(OC)c4)c32)c1C`
0.022 µM
